target: T1, biotinylated full-length HER2 (human, UniProt P04626 23-652, limits assumed, biotinylated (site not stated))
T1 construct: Immobilised on the SPR chip; also called bio-HER2; Human Epidermal Growth Factor Receptor 2
protocolNotes: SPR multi-trace, biotinylated HER2 on chip, analyte 0.617-50 nM, global 1:1 Langmuir fit
Property: Kd; scope: individual binders

{"columns": ["binder", "readoutUnits", "Kd"],
 "data": [
  ["DARPin14-GSGSC-DTPA (designed binder, maleimide-DTPA coupled to the C-terminal Cys of the GSGSC tag, Charge variant derived from DARPin06; His-TEV tag cleaved off; possible N-terminal GS not included; also called construct 14) DLGTQLLEAAESGQLDEVRELLQAGADVNAQDEYGLTPLYLATAHGHLEIVTVLLEAGADVNAQDAIGFTPLHLAAFIGHLEIATVLLEAGADVNAQDKFGKTPADIAAGAGNEDIAEVLQKAAGSGSC", "nM", 0.23],
  ["DARPin15-GSGSC-DTPA (designed binder, maleimide-DTPA coupled to the C-terminal Cys of the GSGSC tag, Charge variant derived from DARPin06; His-TEV tag cleaved off; possible N-terminal GS not included; also called construct 15) DLGTQLLRAAESGQLDEVRELLKAGADVNAQDEYGLTPLYLATAHGHLEIVTVLLEAGADVNAQDAIGFTPLHLAAFIGHLEIATVLLEAGADVNAQDNFGTTPADIAAGAGNEDIAEVLQQAAGSGSC", "nM", 0.637],
  ["DARPin16-GSGSC-DTPA (designed binder, maleimide-DTPA coupled to the C-terminal Cys of the GSGSC tag, Charge variant derived from DARPin06; His-TEV tag cleaved off; possible N-terminal GS not included; also called construct 16) DLGTQLLEAAESGQLDEVRELLKAGADVNAQDEYGLTPLYLATAHGHLEIVTVLLEAGADVNAQDAIGFTPLHLAAFIGHLEIATVLLEAGADVNAQDKFGTTPADIAAGAGNEDIAEVLQKAAGSGSC", "nM", 0.615],
  ["DARPin08-GSGSC-DTPA (designed binder, maleimide-DTPA coupled to the C-terminal Cys of the GSGSC tag, Charge variant of DARPin06; His-TEV tag cleaved off; possible N-terminal GS not included; also called construct 8) DLGTQLLRAAESGQLDEVRELLKAGADVNAQDEYGLTPLYLATAHGHLEIVTVLLEAGADVNAQDAIGFTPLHLAAFIGHLEIATVLLEAGADVNAQDKFGKTPADIAAGAGNEDIAEVLQKAAGSGSC", "nM", 0.17],
  ["DARPin06-GSGSC-DTPA (designed binder, maleimide-DTPA coupled to the C-terminal Cys of the GSGSC tag, Parent; also called construct 6; DTPA coupled parental DARPin06) DLGKKLLEAARAGQDDEVRELLKAGADVNAKDEYGLTPLYLATAHGHLEIVEVLLKAGADVNAVDAIGFTPLHLAAFIGHLEIAEVLLKAGADVNAQDKFGKTPADIAAGAGNEDIAEVLQKAAGSGSC", "nM", 0.216],
  ["DARPin13-GSGSC-DTPA (designed binder, maleimide-DTPA coupled to the C-terminal Cys of the GSGSC tag, Charge variant derived from DARPin06; His-TEV tag cleaved off; possible N-terminal GS not included; also called construct 13) DLGTQLLQAAESGQLDEVHDLLQAGADVNAQDEYGLTPLYLATAHGHLEIVTVLLEAGADVNAQDAIGFTPLHLAAFIGHLEIATVLLEAGADVNAQDKFGKTPADIAAGAGNEDIAEVLQKAAGSGSC", "nM", 0.357]
]}
